Source of measurements: ChEMBL document CHEMBL3507680

For each record, write down the corresponding cytotoxicity at 70.5 h.
# run.description: Human HepG2 cell viability assay in 384 well format
# Assay type: toxicity, cell-based
# Design: dose 125 nL, time 70.5 hour; concentration not given beside the values
# experimental.conditions: HepG2 cells, read-out: Inhibition
Numbers only, in %.

| compound | cytotoxicity at 70.5 h [%] |
| --- | --- |
| CC(C)CN1Cc2nc(N3CCCC3)ncc2C1=O | 19.8 |

Give cytotoxicity at 70.5 h for all compounds that follow.
1. O=C(C1CCCC1)N1CC2(CCN(C3COC3)CC2)Cc2ccccc21
2. Cc1cc(CS(=O)(=O)N(C)C(C)c2ccc(F)cc2)on1 (centres undefined)
3. Cn1ccnc1CN1C(=O)CO[C@H]2CN(Cc3ccccc3O)C[C@H]21
4. CC(C)N1CCC2(CCCN(C(=O)c3cncn3C)C2)CC1
5. c1ccc(O[C@H]2CO[C@@]3(CCCN(Cc4nccs4)C3)C2)nc1
6. Nc1cc(-c2cc(O)cc(C(=O)O)c2)c2cc[nH]c2n1

*A*
1: -21; 2: -7.52; 3: -1.59; 4: -12; 5: 42.1; 6: -10.3

Give cytotoxicity at 70.5 h for all compounds that follow.
1. Cc1nnc(NCc2ccc(Br)cc2)o1
2. CCOC(=O)c1nc(CN2CCN(C(C)C(=O)NC3CC3)CC2)cs1 (centres undefined)
3. CC(C)COCC(NC(=O)Cc1ccn[nH]1)c1ccco1 (centres undefined)
4. Cc1cc(C)n(Cc2ccc(-c3noc(C(=O)NC[C@@H](C)O)n3)cc2)n1
5. COCC1CN(C(=O)Cc2cccs2)Cc2c1cnn2C (centres undefined)
6. CCC(CC)(CN)NC(C)c1ccccc1 (centres undefined)

*A*
1: -4.41; 2: -9.09; 3: -6.61; 4: -14.8; 5: 21.2; 6: -7.08

Give cytotoxicity at 70.5 h for all compounds that follow.
1. CC(C)c1nc(C2CCCN(C(=O)CN3CCCNC3=O)C2)no1 (centres undefined)
2. Cc1occc1C(=O)Nc1cccc(C(=O)OCC2CCCN2)c1 (centres undefined)
3. Cc1cc(CC(=O)NC(C)c2ccc(OCC3CC3)c(F)c2)n[nH]1 (centres undefined)
4. O=C1CO[C@H]2CN(S(=O)(=O)c3ccccc3)C[C@H]2N1c1ccccc1
5. O=C(NCCCN1CCOCC1)c1nc(-c2ccc3cc[nH]c3c2)no1

*A*
-6.67
23.7
-7.64
-8.37
-16.3

Give cytotoxicity at 70.5 h for all compounds that follow.
1. O=C1[C@H]2CN(Cc3ccccc3)C[C@H]2CN1c1cncnc1
2. CN(C)C(=O)CN1CCCCC1c1nc(N)ncc1-c1cccc(F)c1 (centres undefined)
3. CCn1nc(C)c2nc(C(C)C)nc(NCCCn3cccn3)c21
4. CN(CCOCC1CC1)C(=O)Nc1ccc(C#N)c(Cl)c1

*A*
[-2.62, 34.4, -4.58, -0.0375]

Give cytotoxicity at 70.5 h for all compounds that follow.
1. CCc1cc(CN2CCCCC2c2ccc(F)cc2)on1 (centres undefined)
2. Cc1nc(CC(=O)N2CCn3c(nnc3C(C)C)C2)cs1

*A*
1. -5.55
2. -2.25
